Species: Homo sapiens
Test: Metabolic stability in human plasma assessed as half life
Give half-life for every item shown.

Please give the measured half-life for this molecule: N#Cc1nn(-c2cccc(C(F)(F)F)c2)c(=O)n(CCCN2CCCCC2)c1=O
< 5 min

// next record N#Cc1nn(-c2cccc(C(F)(F)F)c2)c(=O)n(CCN2CCCCC2)c1=O
< 5 min

====

Target: Cathepsin K (Homo sapiens, UniProt P43235)
Sequence (P43235 whole entry): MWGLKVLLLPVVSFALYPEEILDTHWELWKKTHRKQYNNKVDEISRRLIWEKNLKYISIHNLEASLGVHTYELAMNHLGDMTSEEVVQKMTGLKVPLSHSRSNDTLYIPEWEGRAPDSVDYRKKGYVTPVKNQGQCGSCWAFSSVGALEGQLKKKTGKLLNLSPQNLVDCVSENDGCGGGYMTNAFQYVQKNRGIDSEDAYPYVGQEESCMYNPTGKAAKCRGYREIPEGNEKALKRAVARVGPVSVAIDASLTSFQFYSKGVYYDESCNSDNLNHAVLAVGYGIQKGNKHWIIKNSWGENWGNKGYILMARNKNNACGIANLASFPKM
Test: Inhibition of human recombinant cathepsin K by fluorescence assay
Give log10 IC50 for every item shown.
Each number you see is log10 of IC50, and the unit inside the log is nM.

Request: log10 IC50, test system Cathepsin K (Homo sapiens, UniProt P43235), entry CCCn1c(=O)c(C#N)nn(CC2CCCCC2)c1=O
3.04

// next record CCCn1c(=O)c(C#N)nn(-c2cccc(C(C)C)c2)c1=O
1.86

// next record CN(C)CCCn1c(=O)c(C#N)nn(C2CCCCCC2)c1=O
2.04

// next record CN(C)CCn1c(=O)c(C#N)nn(-c2cccc(C(F)(F)F)c2)c1=O
2.91

// next record N#Cc1nn(C2CCCCCC2)c(=O)n(CCCN2CCOCC2)c1=O
2.70
